Target: Protein arginine N-methyltransferase 1 (Homo sapiens) (UniProt Q99873)
Sequence (Q99873 whole entry, looked up): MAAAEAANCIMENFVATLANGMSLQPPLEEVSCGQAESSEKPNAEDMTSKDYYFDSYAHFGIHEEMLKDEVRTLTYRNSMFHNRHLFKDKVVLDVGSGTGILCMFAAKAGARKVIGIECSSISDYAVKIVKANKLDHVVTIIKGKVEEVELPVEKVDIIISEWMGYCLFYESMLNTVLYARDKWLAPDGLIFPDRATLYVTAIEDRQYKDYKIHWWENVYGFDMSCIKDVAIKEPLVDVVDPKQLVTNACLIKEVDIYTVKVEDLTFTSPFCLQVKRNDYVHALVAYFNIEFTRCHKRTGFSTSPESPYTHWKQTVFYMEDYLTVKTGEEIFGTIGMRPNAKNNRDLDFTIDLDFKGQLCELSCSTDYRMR
Experiment: human PRMT1 activity-probe blockers – biochemical, fluorescence polarization, primary screen (AID 652257)
Settings: recombinant PRMT1, activity-based probe fluorescence polarization; at 2.79 µM
The campaign covered roughly 370,000 compounds. About 4,800 (1.3%) were called active.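 How the source made its calls: active means inhibition above about 21% made by adding two undisclosed values (limit read from the data); inactive means the rest.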 The entries come from a sample that favours actives as a whole.
Outcomes: yes (1) (active), no (0) (inactive)

COMPOUND: Cc1cc(C)c2nc(-c3ccco3)cc(C(=O)O)c2c1
TGT: Protein arginine N-methyltransferase 1 (Homo sapiens) (UniProt Q99873)
CLASS: yes (1)

COMPOUND: Cn1c(SCC(=O)N2CCCc3ccccc32)nc2ccccc2c1=O
TGT: Protein arginine N-methyltransferase 1 (Homo sapiens) (UniProt Q99873)
CLASS: no (0)

COMPOUND: Brc1ccccc1CN1CCC(Cc2ccccc2)CC1
TGT: Protein arginine N-methyltransferase 1 (Homo sapiens) (UniProt Q99873)
CLASS: no (0)

COMPOUND: COc1ccc(N/N=C2/CCCCC2=O)cc1
TGT: Protein arginine N-methyltransferase 1 (Homo sapiens) (UniProt Q99873)
CLASS: yes (1)

COMPOUND: O=C1CCN(CCCc2ccccc2)CCN1CCO
TGT: Protein arginine N-methyltransferase 1 (Homo sapiens) (UniProt Q99873)
CLASS: no (0)

COMPOUND: Cc1ccsc1-c1cc(C(=O)O)c2c(ccc3ccccc32)n1
TGT: Protein arginine N-methyltransferase 1 (Homo sapiens) (UniProt Q99873)
CLASS: no (0)

COMPOUND: Oc1c(C=Nc2cccc3nsnc23)ccc2ccccc12
TGT: Protein arginine N-methyltransferase 1 (Homo sapiens) (UniProt Q99873)
CLASS: yes (1)

COMPOUND: Cc1ccc2c(c1)c1ncnc(N3CCc4ccccc4C3)c1n2C
TGT: Protein arginine N-methyltransferase 1 (Homo sapiens) (UniProt Q99873)
CLASS: no (0)

COMPOUND: N#C/C(=C/c1ccc(N2CCCCC2)o1)C(=O)NCCc1c[nH]c2ccccc12
TGT: Protein arginine N-methyltransferase 1 (Homo sapiens) (UniProt Q99873)
CLASS: no (0)

COMPOUND: COC(=O)[C@]12C[C@H](CC(=O)NCC34CC5CC(CC(C5)C3)C4)C(=O)N(Cc3ccc(Cl)cc3Cl)C1=C[C@H](COCc1ccccc1)O[C@@H]2C
TGT: Protein arginine N-methyltransferase 1 (Homo sapiens) (UniProt Q99873)
CLASS: no (0)

COMPOUND: COc1ccccc1-c1nnc(NC(=O)c2ccc3ncsc3c2)o1
TGT: Protein arginine N-methyltransferase 1 (Homo sapiens) (UniProt Q99873)
CLASS: no (0)

COMPOUND: O=C(NC(=S)N1CCN(Cc2ccccc2)CC1)c1ccccc1
TGT: Protein arginine N-methyltransferase 1 (Homo sapiens) (UniProt Q99873)
CLASS: no (0)

COMPOUND: COc1cccc(/C=C/C(=O)OCC(=O)N2CCCc3ccccc32)c1
TGT: Protein arginine N-methyltransferase 1 (Homo sapiens) (UniProt Q99873)
CLASS: no (0)

COMPOUND: CCN(CC)C(=O)CC[C@H]1CC[C@]2(CCCN(Cc3ccc(Cl)cc3)C2)O1
TGT: Protein arginine N-methyltransferase 1 (Homo sapiens) (UniProt Q99873)
CLASS: no (0)

COMPOUND: CC1CCN(C(=S)c2ccc(-c3ccc(Cl)cc3Cl)o2)CC1
TGT: Protein arginine N-methyltransferase 1 (Homo sapiens) (UniProt Q99873)
CLASS: yes (1)

COMPOUND: COc1ccccc1CN(C)C(=O)C1(c2ccc(Cl)cc2)CC1
TGT: Protein arginine N-methyltransferase 1 (Homo sapiens) (UniProt Q99873)
CLASS: no (0)

COMPOUND: COc1ccc(C2CC(=O)n3c(nc4ccccc43)S2)cc1OC (configuration not stated)
TGT: Protein arginine N-methyltransferase 1 (Homo sapiens) (UniProt Q99873)
CLASS: no (0)

COMPOUND: C=CCN1C(=O)[C@@H](CC(=O)NCC2CCCCC2)[C@]2(C(=O)OC)CCCCC=C12
TGT: Protein arginine N-methyltransferase 1 (Homo sapiens) (UniProt Q99873)
CLASS: no (0)

COMPOUND: O=C(CSc1nc2nccnc2c(=O)n1Cc1cccs1)Nc1ccccc1F
TGT: Protein arginine N-methyltransferase 1 (Homo sapiens) (UniProt Q99873)
CLASS: no (0)

COMPOUND: CCOC(=O)c1c(N)c(C#N)nn1-c1ccccc1C(=O)OC
TGT: Protein arginine N-methyltransferase 1 (Homo sapiens) (UniProt Q99873)
CLASS: no (0)

COMPOUND: COc1ccc(C(=O)NN2C(=O)C3C(c4ccccc4)C=CC(c4ccccc4)C3C2=O)cc1 (configuration not stated)
TGT: Protein arginine N-methyltransferase 1 (Homo sapiens) (UniProt Q99873)
CLASS: no (0)

COMPOUND: COP(=O)(O)CNC(=O)OCc1ccccc1
TGT: Protein arginine N-methyltransferase 1 (Homo sapiens) (UniProt Q99873)
CLASS: no (0)

COMPOUND: CC(CCN1CCC(C(O)(c2ccccc2)c2ccccc2)CC1)Oc1ccc(C(F)(F)F)cc1 (configuration not stated)
TGT: Protein arginine N-methyltransferase 1 (Homo sapiens) (UniProt Q99873)
CLASS: no (0)

COMPOUND: COc1ccc(C2Nc3ccccc3C(=O)N2Cc2cccs2)cc1COc1c(C)cccc1C (configuration not stated)
TGT: Protein arginine N-methyltransferase 1 (Homo sapiens) (UniProt Q99873)
CLASS: no (0)

COMPOUND: CCCCN1CC(CO)Oc2cccc(F)c2S1(=O)=O (configuration not stated)
TGT: Protein arginine N-methyltransferase 1 (Homo sapiens) (UniProt Q99873)
CLASS: no (0)

COMPOUND: COc1ccccc1Oc1ccc(N/C=C2/CCCC2=O)cc1
TGT: Protein arginine N-methyltransferase 1 (Homo sapiens) (UniProt Q99873)
CLASS: no (0)

COMPOUND: Cc1ccc(Cn2cc(COC(=O)N(C)Cc3ccccc3)nn2)cc1
TGT: Protein arginine N-methyltransferase 1 (Homo sapiens) (UniProt Q99873)
CLASS: no (0)
